Target: Peroxisome proliferator-activated receptor gamma (Homo sapiens)
Sequence (whole entry): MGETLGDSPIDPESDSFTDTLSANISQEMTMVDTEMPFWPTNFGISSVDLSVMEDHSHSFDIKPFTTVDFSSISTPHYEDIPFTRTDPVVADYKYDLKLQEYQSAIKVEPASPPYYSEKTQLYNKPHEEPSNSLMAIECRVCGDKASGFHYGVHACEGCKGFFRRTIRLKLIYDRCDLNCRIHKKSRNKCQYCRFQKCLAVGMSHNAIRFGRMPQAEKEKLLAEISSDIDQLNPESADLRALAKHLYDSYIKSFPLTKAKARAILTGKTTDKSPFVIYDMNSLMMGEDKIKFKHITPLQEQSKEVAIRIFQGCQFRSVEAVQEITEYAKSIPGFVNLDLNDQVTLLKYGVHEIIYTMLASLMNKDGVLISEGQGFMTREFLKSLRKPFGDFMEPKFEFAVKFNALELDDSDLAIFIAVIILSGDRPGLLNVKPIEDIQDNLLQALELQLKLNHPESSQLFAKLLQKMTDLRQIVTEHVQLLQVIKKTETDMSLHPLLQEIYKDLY
Assay: Transactivation of Gal4-tagged PPARgamma ligand binding domain (unknown origin) expressed in COS7 cells measured after overnight incubation by luciferase reporter gene assay relative to piaglitazone
Type: cell-based
Details: Chlorocebus aethiops; COS-7
MEASURED METRIC: max activation (%)
Reply with just the number (in %).

{"columns": ["SMI", "READING"],
 "data": [
  ["O=C(O)Cc1cccc(NC(=O)c2ccccc2NC(=O)c2ccc(SC(F)(F)F)cc2)c1", 158],
  ["COc1ccc(NC(=O)c2ccccc2NC(=O)c2ccc(C(C)(C)C)cc2)cc1C(=O)O", 96],
  ["O=C(O)c1cccc(NC(=O)c2ccc(Cl)cc2NC(=O)c2ccc(C(F)(F)F)cc2)c1", 420],
  ["CC(C)(C)c1ccc(C(=O)Nc2ccccc2C(=O)Nc2cccc(C(=O)O)c2)cc1", 348]
]}

Inquiry: Which value of max activation has been reported for CC(C)(C)c1ccc(C(=O)Nc2ccccc2C(=O)Nc2cc(C(=O)O)ccc2Cl)cc1 in the records?
Reply text: 154

Inquiry: Proceed to CC(C)(C)c1ccc(C(=O)Nc2ccccc2C(=O)Nc2cc(C(=O)O)ccc2F)cc1
Reply text: 735

---

# reported max activation; entries follow
Target: Peroxisome proliferator-activated receptor gamma (Homo sapiens) (UniProt P37231)
Sequence (whole entry): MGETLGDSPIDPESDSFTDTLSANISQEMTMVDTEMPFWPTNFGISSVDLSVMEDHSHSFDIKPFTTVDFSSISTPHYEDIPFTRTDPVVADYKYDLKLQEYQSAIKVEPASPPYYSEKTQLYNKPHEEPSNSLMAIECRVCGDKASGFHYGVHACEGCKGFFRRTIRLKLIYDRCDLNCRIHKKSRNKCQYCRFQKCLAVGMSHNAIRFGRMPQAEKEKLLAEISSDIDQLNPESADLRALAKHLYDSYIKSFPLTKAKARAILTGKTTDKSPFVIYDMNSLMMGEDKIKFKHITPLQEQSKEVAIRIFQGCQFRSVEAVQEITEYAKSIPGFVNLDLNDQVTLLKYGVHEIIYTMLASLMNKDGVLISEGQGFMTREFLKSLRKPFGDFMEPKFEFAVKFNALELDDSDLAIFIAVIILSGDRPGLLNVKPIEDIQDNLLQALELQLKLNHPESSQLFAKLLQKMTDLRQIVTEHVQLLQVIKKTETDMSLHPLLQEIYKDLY
Assay: Transactivation of Gal4-tagged PPARgamma ligand binding domain (unknown origin) expressed in COS7 cells measured after overnight incubation by luciferase reporter gene assay relative to piaglitazone
Assay type: cell-based
Conditions: Chlorocebus aethiops; COS-7
Record the value in %, omitting the unit from your answer.

Observe how each entry below is paired with its result.
{"columns": ["SMI", "TARGET DESC", "UNIT ABBREV", "max activation"],
 "data": [
  ["CC(C)(C)c1ccc(C(=O)Nc2ccc(Cl)cc2C(=O)Nc2cccc(C(=O)O)c2)cc1", "Peroxisome proliferator-activated receptor gamma (Homo sapiens) (UniProt P37231)", "%", 132],
  ["COc1ccc(C(=O)O)cc1NC(=O)c1ccccc1NC(=O)c1ccc(C(C)(C)C)cc1", "Peroxisome proliferator-activated receptor gamma (Homo sapiens) (UniProt P37231)", "%", 154],
  ["CSc1ccc(C(=O)Nc2ccccc2C(=O)Nc2cccc(CC(=O)O)c2)cc1", "Peroxisome proliferator-activated receptor gamma (Homo sapiens) (UniProt P37231)", "%", 200],
  ["O=C(O)c1cccc(NC(=O)c2ccccc2NC(=O)c2cc(C(F)(F)F)cc(C(F)(F)F)c2)c1", "Peroxisome proliferator-activated receptor gamma (Homo sapiens) (UniProt P37231)", "%", 114],
  ["Cc1ccc(C(=O)O)cc1NC(=O)c1ccccc1NC(=O)c1ccc(C(C)(C)C)cc1", "Peroxisome proliferator-activated receptor gamma (Homo sapiens) (UniProt P37231)", "%", 163],
  ["O=C(O)CCCNC(=O)c1ccccc1NC(=O)c1ccc(-c2ccccc2)cc1", "Peroxisome proliferator-activated receptor gamma (Homo sapiens) (UniProt P37231)", "%", 135]
]}

Please examine the following record next.
Inquiry: Give the measured max activation of O=C(O)c1cccc(NC(=O)c2ccccc2NC(=O)c2ccc3ccccc3c2)c1 .
Reply text: 126

---

molecular target: Peroxisome proliferator-activated receptor delta (Homo sapiens, UniProt Q03181); experiment: Transactivation of Gal4-tagged PPARdelta ligand binding domain (unknown origin) expressed in COS7 cells measured after overnight incubation by luciferase reporter gene assay
Sequence (Q03181 whole entry, the tested form may be a part): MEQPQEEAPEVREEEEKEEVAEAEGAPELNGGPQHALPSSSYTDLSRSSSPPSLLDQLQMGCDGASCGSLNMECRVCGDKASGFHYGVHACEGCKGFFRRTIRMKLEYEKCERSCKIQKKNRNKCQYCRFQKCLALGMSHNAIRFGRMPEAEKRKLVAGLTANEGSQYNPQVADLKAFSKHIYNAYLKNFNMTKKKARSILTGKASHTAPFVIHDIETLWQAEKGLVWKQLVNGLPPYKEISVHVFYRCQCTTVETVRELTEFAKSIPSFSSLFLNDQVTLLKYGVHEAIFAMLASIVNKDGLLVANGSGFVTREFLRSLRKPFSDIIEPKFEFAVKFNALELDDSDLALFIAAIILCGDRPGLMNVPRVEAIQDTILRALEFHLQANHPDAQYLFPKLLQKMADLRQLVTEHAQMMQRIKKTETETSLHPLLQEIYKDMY
MEASURED METRIC: EC50

Below are worked cases with known answers.
{"columns": ["SMI", "TARGET DESC", "EC50"],
 "data": [
  ["CSc1ccc(C(=O)Nc2ccccc2C(=O)Nc2cccc(CC(=O)O)c2)cc1", "Peroxisome proliferator-activated receptor delta (Homo sapiens, UniProt Q03181)", "7.4 µM"],
  ["O=C(O)Cc1cccc(NC(=O)c2ccccc2NC(=O)c2ccc(C(F)(F)F)cc2)c1", "Peroxisome proliferator-activated receptor delta (Homo sapiens, UniProt Q03181)", "2.2 µM"]
]}

Inquiry: Tell me the measured EC50 of O=C(O)c1cccc(NC(=O)c2ccccc2NC(=O)c2ccc(Br)cc2)c1 , please.
Reply text: 12 µM

Inquiry: # iterate: CC(C)(C)c1ccc(C(=O)Nc2ccccc2C(=O)Nc2cccc(CC(=O)O)c2)cc1
Reply text: 5.4 µM

Inquiry: O=C(O)c1cccc(NC(=O)c2ccccc2NC(=O)c2ccc(C(F)(F)F)c(F)c2)c1 ?
Reply text: 3 µM

Inquiry: Another compound to check: O=C(O)CCc1cccc(NC(=O)c2ccccc2NC(=O)c2ccc(C(F)(F)F)cc2)c1
Reply text: 6.8 µM

Inquiry: Also O=C(O)c1cccc(NC(=O)c2ccc(Cl)cc2NC(=O)c2ccc(C(F)(F)F)cc2)c1 ?
Reply text: 3.4 µM

Inquiry: Repeat for the following compound: O=C(O)c1cccc(NC(=O)c2ccccc2NC(=O)c2ccc3ccccc3c2)c1
Reply text: 4.7 µM

Inquiry: Cool, now COc1ccc(C(=O)Nc2ccccc2C(=O)Nc2cccc(CC(=O)O)c2)cc1
Reply text: 5.9 µM

---

biological target: Peroxisome proliferator-activated receptor gamma (Homo sapiens) (UniProt P37231); assay: Transactivation of Gal4-tagged PPARgamma ligand binding domain (unknown origin) expressed in COS7 cells at 10 uM measured after overnight incubation by luciferase reporter gene assay; type: cell-based; conditions: COS-7
In this section, each of the compounds is paired with its reported max activation.

Reference set, count: 4
{"columns": ["SMI", "max activation"],
 "data": [
  ["O=C(O)c1ccc(CNC(=O)c2ccccc2NC(=O)c2ccc3ccccc3c2)cc1", "56%"],
  ["O=C(O)Cc1ccc(NC(=O)c2ccccc2NC(=O)c2ccc3ccccc3c2)cc1", "25%"],
  ["COc1ccc(C(=O)Nc2ccccc2C(=O)Nc2cccc(CC(=O)O)c2)cc1", "13.2%"],
  ["O=C(O)CCCCCNC(=O)c1ccccc1NC(=O)c1ccc2ccccc2c1", "40%"]
]}

Inquiry: Given the entry CCc1ccc(C(=O)Nc2ccccc2C(=O)NCCCC(=O)O)cc1 , report its measured max activation.
Reply text: 39%

---

Reported pEC50 values follow for various compounds
molecular target: Peroxisome proliferator-activated receptor alpha (Homo sapiens, UniProt Q07869); test: Transactivation of Gal4-tagged PPARalpha ligand binding domain (unknown origin) expressed in COS7 cells measured after overnight incubation by luciferase reporter gene assay; type: cell-based, COS-7
Sequence (Q07869 whole entry, the tested form may be a part): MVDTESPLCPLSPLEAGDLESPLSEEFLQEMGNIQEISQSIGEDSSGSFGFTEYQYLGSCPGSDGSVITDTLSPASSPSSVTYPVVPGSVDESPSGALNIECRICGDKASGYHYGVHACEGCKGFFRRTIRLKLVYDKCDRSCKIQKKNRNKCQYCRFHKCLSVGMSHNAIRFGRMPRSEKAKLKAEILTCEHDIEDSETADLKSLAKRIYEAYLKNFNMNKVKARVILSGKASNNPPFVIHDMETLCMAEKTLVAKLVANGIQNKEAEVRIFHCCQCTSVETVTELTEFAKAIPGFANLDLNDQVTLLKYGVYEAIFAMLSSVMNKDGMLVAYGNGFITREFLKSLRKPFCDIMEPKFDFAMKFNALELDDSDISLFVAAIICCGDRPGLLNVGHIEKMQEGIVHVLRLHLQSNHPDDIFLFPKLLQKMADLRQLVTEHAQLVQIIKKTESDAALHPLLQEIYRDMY
Scale for pEC50: -log10 of concentration given in mol/L; no unit attached.

Inquiry: Request body: readout pEC50, system Peroxisome proliferator-activated receptor alpha (Homo sapiens, UniProt Q07869), query O=C(O)c1cccc(NC(=O)c2ccccc2NC(=O)c2ccc3c(c2)OCO3)c1 . Return the value.
Reply text: 4.72

Inquiry: # iterate: O=C(O)Cc1cccc(NC(=O)c2ccccc2NC(=O)c2ccc(-c3ccccc3)cc2)c1
Reply text: 5.52

Inquiry: Now give it for O=C(O)Cc1cccc(NC(=O)c2ccccc2NC(=O)c2ccc(C(F)(F)F)cc2)c1 too.
Reply text: 5.27
